- Tgt: HCV NS5B enzyme BB7-I363V (Hepatitis C virus genotype 1b, UniProt Q9WMX2, I2782V)
- Construct: To prepare expression plasmid NS5B-BB7dCT21-His(1363V); His (C); made in house; host or cells: E. coli
- Sequence (Q9WMX2 2420-2989 I2782V): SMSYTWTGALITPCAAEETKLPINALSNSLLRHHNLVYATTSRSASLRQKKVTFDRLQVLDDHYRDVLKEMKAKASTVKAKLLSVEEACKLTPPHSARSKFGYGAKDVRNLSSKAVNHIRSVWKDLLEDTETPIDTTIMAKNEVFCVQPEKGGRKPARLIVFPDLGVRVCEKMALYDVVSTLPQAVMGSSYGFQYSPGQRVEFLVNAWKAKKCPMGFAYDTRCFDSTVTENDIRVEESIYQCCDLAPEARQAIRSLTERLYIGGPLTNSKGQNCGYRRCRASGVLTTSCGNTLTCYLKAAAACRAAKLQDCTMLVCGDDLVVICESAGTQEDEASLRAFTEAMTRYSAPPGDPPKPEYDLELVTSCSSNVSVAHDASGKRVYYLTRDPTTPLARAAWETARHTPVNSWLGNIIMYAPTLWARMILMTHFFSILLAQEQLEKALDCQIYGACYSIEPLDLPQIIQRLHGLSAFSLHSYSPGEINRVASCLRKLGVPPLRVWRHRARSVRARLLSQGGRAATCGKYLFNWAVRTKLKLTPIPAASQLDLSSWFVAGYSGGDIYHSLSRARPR
- Assay protocol: NS5B polymerase biochemical assay
- Recorded conditions: BB7-I363V enzyme

Compound: CNC(=O)c1c(-c2ccc(F)cc2)oc2cc(N(CCO)S(C)(=O)=O)c(C3CC3)cc12 [HCV-796]
Units symbol: nM
IC50: 60

###

- Tgt: HCV NS5B enzyme BK-N316C (Hepatitis C virus genotype 1b, UniProt P26663, N2735C)
- Construct: the NS5B enzyme derived from the genotype 1b BK isolate; His (C)
- Sequence (P26663 2420-2989 N2735C): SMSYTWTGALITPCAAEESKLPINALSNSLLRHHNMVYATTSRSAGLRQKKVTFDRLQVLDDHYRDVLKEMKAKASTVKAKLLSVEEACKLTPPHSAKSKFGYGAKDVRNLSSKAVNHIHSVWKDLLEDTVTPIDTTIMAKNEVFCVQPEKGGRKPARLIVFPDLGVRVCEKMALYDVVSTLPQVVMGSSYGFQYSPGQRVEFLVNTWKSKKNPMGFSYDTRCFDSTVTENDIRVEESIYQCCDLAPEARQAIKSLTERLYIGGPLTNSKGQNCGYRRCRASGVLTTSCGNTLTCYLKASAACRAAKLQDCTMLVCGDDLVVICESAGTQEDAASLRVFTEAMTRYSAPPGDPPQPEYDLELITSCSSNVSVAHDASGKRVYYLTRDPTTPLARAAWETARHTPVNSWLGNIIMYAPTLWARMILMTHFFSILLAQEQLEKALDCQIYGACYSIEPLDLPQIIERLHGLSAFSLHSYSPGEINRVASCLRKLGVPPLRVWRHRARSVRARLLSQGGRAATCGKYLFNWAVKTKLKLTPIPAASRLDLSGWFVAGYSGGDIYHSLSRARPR
- Assay protocol: NS5B polymerase biochemical assay
- Protocol: All NS5B enzymes were expressed and purified according to the protocol for NS5B-BB7dCT21-His as described (Howe et al. (2004) Antimicrobial Agents Chem. 48:4813-21). Briefly, expression plasmids were transformed into E. coli cells and NS5B expression was initiated by the addition of isopropyl-beta-D-thiogalactopyranoside (IPTG). After 4 to 6 hours of incubation the cells were harvested and lysed. […]
pIC50: −log10 of the molar value.

Smiles string: CNC(=O)c1c(-c2ccc(F)cc2)oc2cc(N(CCO)S(C)(=O)=O)c(C3CC3)cc12
pIC50: 7.51

###

- Tested on: 796R(1 μM) cells
- Assay protocol: HCV replicon 3-day assay in variant cells
- Type: cell-based, Hepatitis C virus
- Recorded conditions: Hepatitis C virus; 796R(1 μM) cells, HCV RNA, 72 hours
Property label: EC50

Compound: CNC(=O)c1c(-c2ccc(F)cc2)oc2cc(N(CCO)S(C)(=O)=O)c(C3CC3)cc12 [HCV-796]
Value: 8 µM

###

- Assay protocol: physchem
- Recorded conditions: plasma or biological fluid
Property label: solubility

Compound: CNC(=O)c1c(-c2ccc(F)cc2)oc2cc(N(CCO)S(C)(=O)=O)c(C3CC3)cc12 [HCV-796]
Property label: solubility
Value: 56 µM

###

- Tgt: HCV NS5B enzyme BB7-M414I (Hepatitis C virus genotype 1b, UniProt Q9WMX2, M2833I)
- Construct: To prepare expression plasmid NS5B-BB7dCT21-His(M414I); His (C); made in house; host or cells: E. coli
- Sequence (Q9WMX2 2420-2989 M2833I): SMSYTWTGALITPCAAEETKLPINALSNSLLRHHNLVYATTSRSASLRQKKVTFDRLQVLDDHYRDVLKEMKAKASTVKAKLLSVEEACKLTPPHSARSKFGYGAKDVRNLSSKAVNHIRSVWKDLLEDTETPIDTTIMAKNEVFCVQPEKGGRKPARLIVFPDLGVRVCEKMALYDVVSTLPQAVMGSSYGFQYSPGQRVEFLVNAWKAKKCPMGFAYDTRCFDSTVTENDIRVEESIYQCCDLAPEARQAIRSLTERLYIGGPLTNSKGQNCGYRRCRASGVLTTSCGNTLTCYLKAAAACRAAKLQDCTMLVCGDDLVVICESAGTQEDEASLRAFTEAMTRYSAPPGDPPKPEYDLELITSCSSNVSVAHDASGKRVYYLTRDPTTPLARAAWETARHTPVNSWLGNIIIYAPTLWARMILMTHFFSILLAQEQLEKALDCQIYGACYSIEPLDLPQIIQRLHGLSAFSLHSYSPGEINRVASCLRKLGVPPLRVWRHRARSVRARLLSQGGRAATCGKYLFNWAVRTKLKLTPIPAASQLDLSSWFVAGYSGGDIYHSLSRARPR
- Assay protocol: NS5B polymerase biochemical assay
Property label: IC50

Compound: CNC(=O)c1c(-c2ccc(F)cc2)oc2cc(N(CCO)S(C)(=O)=O)c(C3CC3)cc12 [HCV-796]
Property label: IC50
Value: 0.024 µM

###

- Tgt: HCV NS5B enzyme BB7-C316F (Hepatitis C virus genotype 1b, UniProt Q9WMX2, C2735F)
- Construct: NS5B-BB7dCT21-His(C316F/S/Y/N); His (C); made in house; host or cells: E. coli
- Sequence (Q9WMX2 2420-2989 C2735F): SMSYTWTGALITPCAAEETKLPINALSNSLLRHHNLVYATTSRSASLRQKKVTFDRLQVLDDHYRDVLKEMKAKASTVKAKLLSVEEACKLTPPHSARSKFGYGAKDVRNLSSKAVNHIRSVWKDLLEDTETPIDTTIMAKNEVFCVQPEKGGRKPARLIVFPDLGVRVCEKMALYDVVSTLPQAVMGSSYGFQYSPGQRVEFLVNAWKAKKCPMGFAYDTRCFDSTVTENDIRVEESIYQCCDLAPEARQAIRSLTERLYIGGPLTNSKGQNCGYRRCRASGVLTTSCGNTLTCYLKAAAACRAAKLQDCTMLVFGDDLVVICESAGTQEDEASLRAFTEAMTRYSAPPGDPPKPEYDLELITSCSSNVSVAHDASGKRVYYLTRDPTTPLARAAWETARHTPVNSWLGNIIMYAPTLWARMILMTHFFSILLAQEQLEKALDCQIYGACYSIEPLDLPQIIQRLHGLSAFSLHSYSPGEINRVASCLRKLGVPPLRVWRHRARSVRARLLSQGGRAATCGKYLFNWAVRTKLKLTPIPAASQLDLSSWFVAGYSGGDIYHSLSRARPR
- Assay protocol: NS5B polymerase biochemical assay

Smiles string: CNC(=O)c1c(-c2ccc(F)cc2)oc2cc(N(CCO)S(C)(=O)=O)c(C3CC3)cc12
IC50: 1510 nM

###

- Test system: 1b, BB7 replicon (WT)
- Assay protocol: Replicon 3-day assay, wild type
- Type: cell-based, Hepatitis C virus
- Recorded conditions: Hepatitis C virus

Compound: CNC(=O)c1c(-c2ccc(F)cc2)oc2cc(N(CCO)S(C)(=O)=O)c(C3CC3)cc12 [HCV-796]
EC50 (nM): 8.6
